Test system: PPARa:RXRa (NR concentration 270 nM, RXRa partner concentration 90 nM)
Assay: PBM binding z-score (relative to random genomic background probes); higher = stronger binding; sequences stand for … in GC…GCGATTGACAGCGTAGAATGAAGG
Each item that follows carries a reported PBM binding z-score.
parameter: PBM binding z-score

• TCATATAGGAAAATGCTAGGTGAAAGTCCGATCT = 0.728
• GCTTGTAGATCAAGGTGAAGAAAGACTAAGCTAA = 0.597
• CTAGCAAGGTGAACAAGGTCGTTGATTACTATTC = 2.39
• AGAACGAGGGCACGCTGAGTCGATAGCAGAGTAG = 1.98
• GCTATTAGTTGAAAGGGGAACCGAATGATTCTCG = 0.798
• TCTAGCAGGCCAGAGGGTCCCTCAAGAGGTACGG = -0.293
• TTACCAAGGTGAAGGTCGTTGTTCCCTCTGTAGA = 2.58
• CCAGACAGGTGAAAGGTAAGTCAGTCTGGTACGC = 2.87
• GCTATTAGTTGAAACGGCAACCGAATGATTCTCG = -0.33
• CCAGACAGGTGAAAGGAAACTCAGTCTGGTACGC = 0.52
• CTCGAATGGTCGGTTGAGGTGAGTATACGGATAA = -0.259
• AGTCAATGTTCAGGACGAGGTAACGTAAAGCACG = -0.141

----------
Tested on: LXRb:RXRa (NR concentration 270 nM, RXRa partner concentration 90 nM)
Experiment: PBM binding z-score (relative to random genomic background probes); higher = stronger binding; sequences stand for … in GC…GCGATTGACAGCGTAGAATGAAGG
Each item that follows carries a reported PBM binding z-score.
parameter: PBM binding z-score

- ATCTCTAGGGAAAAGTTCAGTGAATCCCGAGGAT: 0.302
- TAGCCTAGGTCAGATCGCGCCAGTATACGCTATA: 1.09
- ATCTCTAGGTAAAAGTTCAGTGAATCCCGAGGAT: 1.12
- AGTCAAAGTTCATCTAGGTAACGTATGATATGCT: 3.77
- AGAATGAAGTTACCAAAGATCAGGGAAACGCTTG: -0.292
- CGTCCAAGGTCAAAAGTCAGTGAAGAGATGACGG: 3.79

----------
System: PPARg:RXRa 30nM:10nM, anti-RXR (NR concentration 30 nM, RXRa partner concentration 10 nM)
Assay: PBM binding z-score (relative to random genomic background probes); higher = stronger binding; sequences stand for … in GC…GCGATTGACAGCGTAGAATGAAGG
parameter: PBM binding z-score

- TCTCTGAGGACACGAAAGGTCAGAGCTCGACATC: 2.68
- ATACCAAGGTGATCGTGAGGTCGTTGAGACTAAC: -0.174
- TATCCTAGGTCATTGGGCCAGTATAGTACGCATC: 2.33
- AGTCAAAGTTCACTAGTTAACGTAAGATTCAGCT: 2.56
- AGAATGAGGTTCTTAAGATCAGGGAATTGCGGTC: -0.306
- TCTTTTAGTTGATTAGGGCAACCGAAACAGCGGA: 4.27
- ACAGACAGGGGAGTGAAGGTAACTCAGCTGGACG: -0.0675
- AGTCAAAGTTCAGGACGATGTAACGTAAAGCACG: 1.92
- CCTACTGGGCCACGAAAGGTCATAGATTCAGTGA: 2.28
- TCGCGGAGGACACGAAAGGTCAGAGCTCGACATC: 0.965
- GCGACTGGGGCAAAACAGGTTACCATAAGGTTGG: -0.338
- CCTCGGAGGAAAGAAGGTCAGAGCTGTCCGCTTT: -0.857
